Assay: Stability assay in human plasma
Assay type: in vitro ADME
Conditions: 1 μM compound in human plasma, LC-MS/MS; read-out: t½ human plasma
Catalogue of molecules with associated half-life at 1 μM

> print(dat)
                                        mol  reported.measurement
1  COC(=O)c1ccc(F)c(NC(=O)c2cccc(-c3cc(C(=O)Nc4ccncc4F)ccc3CN)c2)c1              < 60 min
2  NCc1ccc(C(=O)Nc2ccncc2F)cc1-c1cccc(NC(=O)c2ccc3c(c2)COC3=O)c1              < 60 min
3  CCCOC(=O)c1cccc(NC(=O)c2cccc(-c3cc(C(=O)Nc4ccncc4F)ccc3CN)c2)c1               < 5 min

Now turn to the next molecule.
Query: Dear colleague, please send me the reported half-life at 1 μM for "COC(=O)c1cccc(NC(=O)c2cccc(-c3cc(C(=O)Nc4ccncc4F)ccc3CN)c2)c1" when you can.
Reply: < 5 min
